Values from PubChem BioAssay (NCI)

Test system: SK-MEL-2 melanoma
procedureDetails: NCI-60 one-dose screen, 48 h
measurementContext: 10 µM unless noted
About 83,000 compounds went through this panel and 20% of them were active in at least one assay; those are over-represented in the sample as a whole. Active and inactive are the calls of the source. Rule for the calls: active = growth percent below 10; inactive = the rest.
I would appreciate it if you answered using one of these outcomes: active, inactive

CCN(CC)CCCC(C)Nc1cnc(C(=O)Nc2ccc(Cl)c3cccnc23)cn1 (stereo not drawn)	inactive
Nc1nc2ccc([C@@H]3Nc4ccc5[nH]ncc5c4[C@H]4[C@H]5CCC(C5)[C@H]43)cc2s1	active
CCOCC(O)(c1ccc(Cl)cc1)c1ccc(Cl)cc1	inactive
Nc1nc(N)c2cc(CNc3ccc(Cl)c(Cl)c3)ccc2n1	inactive

Per the assay record, what outcome was assigned to CC(C)N1CCN(c2ccncc2S(=O)(=O)N2CCN(C)CC2)CC1 ?
inactive

###

Tested on: SNB-19 CNS
procedureDetails: NCI-60 one-dose screen, 48 h
measurementContext: 10 µM unless noted
The panel holds about 83,000 compounds, 20% with a hit somewhere; the sample as a whole holds those more often. Calls of active or inactive are those of the source. The calls were made as follows: active = growth percent below 10; inactive = the rest.
Output constraint: value belongs to TRUE = active, FALSE = inactive

O=C(O)c1cn(-c2ccccc2)nc1-c1ccc(O)cc1	FALSE
CCCCCCCCCCCCCCC(C(=O)OCC)C(=O)OCC	FALSE
O=C1CC2(O)CSc3nc(=O)cc(n32)N1 (stereo not given)	FALSE
CN1CCN(Cc2ccc(NC(=O)c3cncc(C#Cc4cnc5cccnn45)c3)cc2C(F)(F)F)CC1	TRUE
CC(C)NCCCCCNc1cc(O)cc2cccnc12	FALSE
CCOc1ccc([C@@H]2[C@@H](Oc3ccccc3)C(=O)N2c2cc(OC)c(OC)c(OC)c2)cc1	FALSE
O=C(O)C1[S][Sb]([CH](C(=O)O)[CH](C(=O)O)[Sb]2[S]C(C(=O)O)C(C(=O)O)[S]2)[S]C1C(=O)O (stereo not given)	FALSE
Cc1ccc(-c2nc3ccccc3c(=O)n2/N=C/c2cccc3ccccc23)cc1	FALSE
CC(=O)c1nn(-c2ccccc2)/c(=N\N=C\c2coc3ccc(F)cc3c2=O)s1	FALSE

Continue with the next compound.
In this assay, the call recorded for CCOC(=O)c1ccc(NCCC(=O)O)cc1 was what?
FALSE

###

Tested on: PC-3 prostate
procedureDetails: NCI-60 one-dose screen, 48 h (100 = growth as untreated, 0 = no growth, -100 = all killed)
measurementContext: 10 µM unless noted
Description: Growth inhibition of the PC-3 human tumor cell line is measured as a screen for anti-cancer activity. Cells are grown in 96 well plates and exposed to the test compound for 48 hours. Compounds are tested at a single concentration, which is 10^-5 M for most compounds. The reported endpoint is percent growth (GI% or GIPRCNT), where numbers from 0 - 100% represent growth inhibition, and numbers from -100% - 0 represent cell death. For example, a value of 40 represents 60% growth inhibition. […]
About 83,000 compounds went through this panel and 20% of them were active in at least one assay; those are over-represented in the sample as a whole.
Mark fulfilled for growth under 90%, not fulfilled if at or over.

COc1ccc(NC(=O)C2c3ccccc3C(=O)N(CC(C)C)C2c2cccs2)cc1 (centres undefined)	not fulfilled

Please indicate whether the reported growth of COc1cc(C)cc2oc3oc(=O)c(-c4csc(-c5cc6ccccc6oc5=O)n4)cc3c(=O)c12 is strictly below 90%.
not fulfilled

Lab note: confirm whether the reported growth for this compound is below 90%, equality not counting. compound: C=CCn1c(SCC(=O)Nc2ccc(/C(C)=N\O)cc2)nnc1-c1cc(-c2ccc(Cl)cc2)nc2ccccc12
fulfilled

Does this compound meet the criterion growth < 90%? CN(C)CCOc1nc2c3ccncc3cc(-c3cccc(Cl)c3)c2c2cnccc12
fulfilled

Does this compound meet the criterion growth < 90%? Nc1nc(N)c2c(n1)NC(c1sc(Cl)nc1Cl)CC(c1ccccc1)=N2 (centres undefined)
fulfilled

Determine whether this compound shows growth lower than 90% (ties excluded): COc1cccc(NC(=O)c2c(-c3ccccc3)c(-c3ccccc3)n[nH]c2=O)c1
not fulfilled

In plain terms, does O=C1/C(=C\c2cccn2C(=O)c2ccccc2)c2ccccc2N1c1c(Cl)cccc1Cl come in under 90% for growth?
fulfilled
